- CONDITION_SUMMARY: in n-butanol, 288.15 K
MEASURED_PARAMETER: solubility (mole fraction)
Number, no unit, nothing else.

solubility (mole fraction) reading for O=C(O)C=CC(=O)O.OCCOCCN1CCN(C2=Nc3ccccc3Sc3ccccc32)CC1.OCCOCCN1CCN(C2=Nc3ccccc3Sc3ccccc32)CC1 : 0.000216

* * *

- CONDITION_SUMMARY: in water, 303.15 K
MEASURED_PARAMETER: solubility (mole fraction)
Number, no unit, nothing else.

solubility (mole fraction) reading for O=C(O)C=CC(=O)O.OCCOCCN1CCN(C2=Nc3ccccc3Sc3ccccc32)CC1.OCCOCCN1CCN(C2=Nc3ccccc3Sc3ccccc32)CC1 : 7.99e-05

* * *

- CONDITION_SUMMARY: in water, 318.15 K
MEASURED_PARAMETER: solubility (mole fraction)

solubility (mole fraction) reading for O=C(O)C=CC(=O)O.OCCOCCN1CCN(C2=Nc3ccccc3Sc3ccccc32)CC1.OCCOCCN1CCN(C2=Nc3ccccc3Sc3ccccc32)CC1 : 0.000131

* * *

- CONDITION_SUMMARY: in methanol, 298.15 K
MEASURED_PARAMETER: solubility (mole fraction)
Number, no unit, nothing else.

solubility (mole fraction) reading for O=C(O)C=CC(=O)O.OCCOCCN1CCN(C2=Nc3ccccc3Sc3ccccc32)CC1.OCCOCCN1CCN(C2=Nc3ccccc3Sc3ccccc32)CC1 : 0.000696

* * *

- CONDITION_SUMMARY: in n-butanol, 293.15 K
MEASURED_PARAMETER: solubility (mole fraction)
Number, no unit, nothing else.

solubility (mole fraction) reading for O=C(O)C=CC(=O)O.OCCOCCN1CCN(C2=Nc3ccccc3Sc3ccccc32)CC1.OCCOCCN1CCN(C2=Nc3ccccc3Sc3ccccc32)CC1 : 0.000292

* * *

- CONDITION_SUMMARY: in methanol, 303.15 K
MEASURED_PARAMETER: solubility (mole fraction)
Number, no unit, nothing else.

solubility (mole fraction) reading for O=C(O)C=CC(=O)O.OCCOCCN1CCN(C2=Nc3ccccc3Sc3ccccc32)CC1.OCCOCCN1CCN(C2=Nc3ccccc3Sc3ccccc32)CC1 : 0.000879

* * *

- CONDITION_SUMMARY: in isopropanol, 298.15 K
MEASURED_PARAMETER: solubility (mole fraction)
Number, no unit, nothing else.

solubility (mole fraction) reading for O=C(O)C=CC(=O)O.OCCOCCN1CCN(C2=Nc3ccccc3Sc3ccccc32)CC1.OCCOCCN1CCN(C2=Nc3ccccc3Sc3ccccc32)CC1 : 0.000203

* * *

- CONDITION_SUMMARY: in isobutanol, 313.15 K
MEASURED_PARAMETER: solubility (mole fraction)
Number, no unit, nothing else.

solubility (mole fraction) reading for O=C(O)C=CC(=O)O.OCCOCCN1CCN(C2=Nc3ccccc3Sc3ccccc32)CC1.OCCOCCN1CCN(C2=Nc3ccccc3Sc3ccccc32)CC1 : 0.000307

* * *

- CONDITION_SUMMARY: in ethanol, 283.15 K
MEASURED_PARAMETER: solubility (mole fraction)
Number, no unit, nothing else.

solubility (mole fraction) reading for O=C(O)C=CC(=O)O.OCCOCCN1CCN(C2=Nc3ccccc3Sc3ccccc32)CC1.OCCOCCN1CCN(C2=Nc3ccccc3Sc3ccccc32)CC1 : 0.000191

* * *

- CONDITION_SUMMARY: in isobutanol, 293.15 K
MEASURED_PARAMETER: solubility (mole fraction)
Number, no unit, nothing else.

solubility (mole fraction) reading for O=C(O)C=CC(=O)O.OCCOCCN1CCN(C2=Nc3ccccc3Sc3ccccc32)CC1.OCCOCCN1CCN(C2=Nc3ccccc3Sc3ccccc32)CC1 : 0.000119

* * *

- CONDITION_SUMMARY: in isopropanol, 293.15 K
MEASURED_PARAMETER: solubility (mole fraction)
Number, no unit, nothing else.

solubility (mole fraction) reading for O=C(O)C=CC(=O)O.OCCOCCN1CCN(C2=Nc3ccccc3Sc3ccccc32)CC1.OCCOCCN1CCN(C2=Nc3ccccc3Sc3ccccc32)CC1 : 0.000168

* * *

- CONDITION_SUMMARY: in n-butanol, 308.15 K
MEASURED_PARAMETER: solubility (mole fraction)
Number, no unit, nothing else.

solubility (mole fraction) reading for O=C(O)C=CC(=O)O.OCCOCCN1CCN(C2=Nc3ccccc3Sc3ccccc32)CC1.OCCOCCN1CCN(C2=Nc3ccccc3Sc3ccccc32)CC1 : 0.000619

* * *

- CONDITION_SUMMARY: in n-butanol, 303.15 K
MEASURED_PARAMETER: solubility (mole fraction)
Number, no unit, nothing else.

solubility (mole fraction) reading for O=C(O)C=CC(=O)O.OCCOCCN1CCN(C2=Nc3ccccc3Sc3ccccc32)CC1.OCCOCCN1CCN(C2=Nc3ccccc3Sc3ccccc32)CC1 : 0.000502

* * *

- CONDITION_SUMMARY: in ethanol, 308.15 K
MEASURED_PARAMETER: solubility (mole fraction)
Number, no unit, nothing else.

solubility (mole fraction) reading for O=C(O)C=CC(=O)O.OCCOCCN1CCN(C2=Nc3ccccc3Sc3ccccc32)CC1.OCCOCCN1CCN(C2=Nc3ccccc3Sc3ccccc32)CC1 : 0.000636

* * *

- CONDITION_SUMMARY: in acetone, 313.15 K
MEASURED_PARAMETER: solubility (mole fraction)

solubility (mole fraction) reading for O=C(O)C=CC(=O)O.OCCOCCN1CCN(C2=Nc3ccccc3Sc3ccccc32)CC1.OCCOCCN1CCN(C2=Nc3ccccc3Sc3ccccc32)CC1 : 0.000345

* * *

- CONDITION_SUMMARY: in ethanol, 298.15 K
MEASURED_PARAMETER: solubility (mole fraction)
Number, no unit, nothing else.

solubility (mole fraction) reading for O=C(O)C=CC(=O)O.OCCOCCN1CCN(C2=Nc3ccccc3Sc3ccccc32)CC1.OCCOCCN1CCN(C2=Nc3ccccc3Sc3ccccc32)CC1 : 0.000408

* * *

- CONDITION_SUMMARY: in isobutanol, 288.15 K
MEASURED_PARAMETER: solubility (mole fraction)
Number, no unit, nothing else.

solubility (mole fraction) reading for O=C(O)C=CC(=O)O.OCCOCCN1CCN(C2=Nc3ccccc3Sc3ccccc32)CC1.OCCOCCN1CCN(C2=Nc3ccccc3Sc3ccccc32)CC1 : 8.53e-05

* * *

- CONDITION_SUMMARY: in ethyl acetate, 303.15 K
MEASURED_PARAMETER: solubility (mole fraction)
Number, no unit, nothing else.

solubility (mole fraction) reading for O=C(O)C=CC(=O)O.OCCOCCN1CCN(C2=Nc3ccccc3Sc3ccccc32)CC1.OCCOCCN1CCN(C2=Nc3ccccc3Sc3ccccc32)CC1 : 0.000218

* * *

- CONDITION_SUMMARY: in n-butanol, 313.15 K
MEASURED_PARAMETER: solubility (mole fraction)
Number, no unit, nothing else.

solubility (mole fraction) reading for O=C(O)C=CC(=O)O.OCCOCCN1CCN(C2=Nc3ccccc3Sc3ccccc32)CC1.OCCOCCN1CCN(C2=Nc3ccccc3Sc3ccccc32)CC1 : 0.000792

* * *

- CONDITION_SUMMARY: in DMF, 283.15 K
MEASURED_PARAMETER: solubility (mole fraction)
Number, no unit, nothing else.

solubility (mole fraction) reading for O=C(O)C=CC(=O)O.OCCOCCN1CCN(C2=Nc3ccccc3Sc3ccccc32)CC1.OCCOCCN1CCN(C2=Nc3ccccc3Sc3ccccc32)CC1 : 0.00309

* * *

- CONDITION_SUMMARY: in isobutanol, 318.15 K
MEASURED_PARAMETER: solubility (mole fraction)
Number, no unit, nothing else.

solubility (mole fraction) reading for O=C(O)C=CC(=O)O.OCCOCCN1CCN(C2=Nc3ccccc3Sc3ccccc32)CC1.OCCOCCN1CCN(C2=Nc3ccccc3Sc3ccccc32)CC1 : 0.000395

* * *

- CONDITION_SUMMARY: in methanol, 318.15 K
MEASURED_PARAMETER: solubility (mole fraction)

solubility (mole fraction) reading for O=C(O)C=CC(=O)O.OCCOCCN1CCN(C2=Nc3ccccc3Sc3ccccc32)CC1.OCCOCCN1CCN(C2=Nc3ccccc3Sc3ccccc32)CC1 : 0.00202

* * *

- CONDITION_SUMMARY: in acetone, 298.15 K
MEASURED_PARAMETER: solubility (mole fraction)
Number, no unit, nothing else.

solubility (mole fraction) reading for O=C(O)C=CC(=O)O.OCCOCCN1CCN(C2=Nc3ccccc3Sc3ccccc32)CC1.OCCOCCN1CCN(C2=Nc3ccccc3Sc3ccccc32)CC1 : 0.000217

* * *

- CONDITION_SUMMARY: in ethyl acetate, 288.15 K
MEASURED_PARAMETER: solubility (mole fraction)
Number, no unit, nothing else.

solubility (mole fraction) reading for O=C(O)C=CC(=O)O.OCCOCCN1CCN(C2=Nc3ccccc3Sc3ccccc32)CC1.OCCOCCN1CCN(C2=Nc3ccccc3Sc3ccccc32)CC1 : 9.87e-05

Where do these numbers come from? They come from BigSolDB 2.1.
